- testProtocol: Pharmacokinetics in Sprague Dawley rats (plasma and brain concentrations, PK parameters)
- Assay type: in vivo
- details: Sprague Dawley, rat, brain, iv, 3 mg/kg, Rat (Sprague Dawley) iv 3 mg/kg (IVB); brain; 0.083 h; Group 1, Group 2; detected value multiplied by 3; read-out: brain Actual Conc.
- Description: Pharmacokinetics for I-127, I-172 and I-210 were determined in Sprague Dawley rats or CD-1 mice by dosing intravenous (IV), subcutaneous (SC) or per oral (PO) using facility SOPs and sampling plasma at required time points. […] Compounds were extracted from plasma, injected on reverse phase HPLC, eluted with a gradient from 5% to 95% acetonitrile in water and quantified by mass spectrometry with internal standard. […]
observationType: concentration at 0.083 h (ng/g)
A number alone suffices; assume ng/g.

Q: Given the entry O=C1CCC(N2C(=O)c3cccc(NCCOCCOCCNCc4ccc(-n5cc(NC(=O)c6coc(-c7ccnc(NCC8CC8)c7)n6)c(C(F)F)n5)cc4)c3C2=O)C(=O)N1 (stereo not shown) [I-210] , report its measured concentration at 0.083 h.
A: 51.6

###

- testProtocol: Pharmacokinetics in Sprague Dawley rats (plasma and brain concentrations, PK parameters)
- Format: in vivo
- details: Sprague-Dawley, rat, plasma, iv, 3 mg/kg, Sprague Dawley rat, iv 3 mg/kg, plasma, 2 h, Rat 2; read-out: Concentration Rat 2
observationType: concentration at 2 h (ng/mL)
A number alone suffices; assume ng/mL.

Q: Given the entry O=C1CCC(N2C(=O)c3cccc(NCCOCCOCCNCc4ccc(-n5cc(NC(=O)c6coc(-c7ccnc(NCC8CC8)c7)n6)c(C(F)F)n5)cc4)c3C2=O)C(=O)N1 (stereo not shown) , report its measured concentration at 2 h.
A: 159

###

- targetSystem: IRAK4 (Homo sapiens, UniProt Q9NWZ3)
- Sequence (Q9NWZ3 1-460): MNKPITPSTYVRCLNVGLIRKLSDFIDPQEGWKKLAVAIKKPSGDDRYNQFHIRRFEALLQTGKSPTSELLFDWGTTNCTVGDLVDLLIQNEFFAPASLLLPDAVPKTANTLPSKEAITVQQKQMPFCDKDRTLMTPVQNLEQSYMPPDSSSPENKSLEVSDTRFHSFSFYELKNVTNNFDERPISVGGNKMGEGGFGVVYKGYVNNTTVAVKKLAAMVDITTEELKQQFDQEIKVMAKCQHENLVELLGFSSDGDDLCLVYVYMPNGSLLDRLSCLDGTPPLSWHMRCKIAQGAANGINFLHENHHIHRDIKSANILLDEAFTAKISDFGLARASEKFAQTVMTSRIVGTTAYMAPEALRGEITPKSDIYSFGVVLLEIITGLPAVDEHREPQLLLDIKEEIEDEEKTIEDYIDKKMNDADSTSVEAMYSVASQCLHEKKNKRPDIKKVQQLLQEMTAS
- testProtocol: OCI-LY-10 degradation assay (western blot, % IRAK4 degraded after 4 hours)
- Type: cell-based
- Parameters: endogenous in cells; host or cells: OCI-LY10
- details: OCI-LY10 cells, 4 hours, 1 uM compound
observationType: OCI-LY10 % IRAK4 Degradation (1 uM)

Worked cases, answers included:
- molecule: "O=C1CCC(N2C(=O)c3cccc(NCCOCCN4CCO[C@@H](CNC(=O)c5ccc(-n6cc(NC(=O)c7coc(-c8ccnc(NCC9CC9)c8)n7)c(C(F)F)n6)cc5)C4)c3C2=O)C(=O)N1 (stereo partly drawn) [I-247]"
  OCI-LY10 % IRAK4 Degradation (1 uM): "A (>50% degradation)"
- molecule: "CN(CCCc1ccc2c(c1)C(=O)N(C1CCC(=O)NC1=O)C2=O)Cc1ccc(-n2cc(NC(=O)c3coc(-c4ccncc4)n3)c(C(N)=O)n2)cc1 (stereo not drawn) [I-370]"
  OCI-LY10 % IRAK4 Degradation (1 uM): "B (>20-50% degradation)"
- molecule: "O=C1CCC(N2C(=O)c3cccc(CCCOCCOCCNC(=O)c4ccc(-n5cc(NC(=O)c6coc(-c7ccnc(NCC8CC8)c7)n6)c(C(F)F)n5)cc4)c3C2=O)C(=O)N1 (stereo not drawn) [I-244]"
  OCI-LY10 % IRAK4 Degradation (1 uM): "B (>20-50% degradation)"
- molecule: "O=C1CCC(N2C(=O)c3cccc(NCc4cn(CCOCCOCCNCc5ccc(-n6cc(NC(=O)c7coc(-c8ccnc(NCC9CC9)c8)n7)c(C(F)F)n6)cc5)nn4)c3C2=O)C(=O)N1 (stereo not drawn) [I-340]"
  OCI-LY10 % IRAK4 Degradation (1 uM): "A (>50% degradation)"
- molecule: "NC(=O)c1nn(-c2ccc(C(=O)NCCOCCOCCNc3cccc4c3C(=O)N(C3CCC(=O)NC3=O)C4=O)cc2)cc1NC(=O)c1coc(-c2ccnc(N)c2)n1 (stereo not drawn) [I-427]"
  OCI-LY10 % IRAK4 Degradation (1 uM): "A (>50% degradation)"

Q: Given the entry Cn1c(=O)n(C2CCC(=O)NC2=O)c2cccc(CCCOCCOCCNC(=O)c3ccc(-n4cc(NC(=O)c5coc(-c6ccnc(NCC(F)(F)F)c6)n5)c(C(N)=O)n4)cc3)c21 (stereo not drawn) [I-249] , report its measured OCI-LY10 % IRAK4 Degradation (1 uM).
A: A (>50% degradation)

Q: Given the entry O=C1CCC(N2C(=O)c3ccc(NC4CCN(CCOCCOCCNC(=O)c5ccc(-n6cc(NC(=O)c7coc(-c8ccnc(NCC9CC9)c8)n7)c(C(F)F)n6)cc5)CC4)cc3C2=O)C(=O)N1 (stereo not drawn) [I-270] , report its measured OCI-LY10 % IRAK4 Degradation (1 uM).
A: A (>50% degradation)

Q: Given the entry O=C1CCC(N2C(=O)c3cccc(CCCNCc4ccc(-n5cc(NC(=O)c6coc(-c7ccnc(NCC8CC8)c7)n6)c(C(F)F)n5)cc4)c3C2=O)C(=O)N1 (stereo not drawn) [I-357] , report its measured OCI-LY10 % IRAK4 Degradation (1 uM).
A: C (<20% degradation)

Q: Given the entry NC(=O)c1nn(CCOCCOCCOCCOCCNc2cccc3c2C(=O)N(C2CCC(=O)NC2=O)C3=O)cc1NC(=O)c1coc(-c2ccnc(NCC3CC3)c2)n1 (stereo not drawn) [I-240] , report its measured OCI-LY10 % IRAK4 Degradation (1 uM).
A: B (>20-50% degradation)

Q: Given the entry O=C1CCC(N2C(=O)c3cccc(CCCCCN4CCC(n5cc(NC(=O)c6coc(-c7ccnc(NCC8CC8)c7)n6)c(C(F)F)n5)CC4)c3C2=O)C(=O)N1 (stereo not drawn) [I-258] , report its measured OCI-LY10 % IRAK4 Degradation (1 uM).
A: C (<20% degradation)

Q: Given the entry O=C1CCC(N2C(=O)c3cccc(CCCNCc4ccc(-n5cc(NC(=O)c6coc(-c7ccnc(NCC(F)(F)F)c7)n6)c(C(F)F)n5)cc4)c3C2=O)C(=O)N1 (stereo not drawn) [I-361] , report its measured OCI-LY10 % IRAK4 Degradation (1 uM).
A: C (<20% degradation)

Q: Given the entry NC(=O)c1nn(-c2ccc(C(=O)NCCOCCOCCn3c(=O)n(C4CCC(=O)NC4=O)c4ccccc43)cc2)cc1NC(=O)c1coc(-c2ccnc(NCC(F)(F)F)c2)n1 (stereo not drawn) [I-231] , report its measured OCI-LY10 % IRAK4 Degradation (1 uM).
A: A (>50% degradation)

Q: Given the entry O=C1CCC(N2C(=O)c3ccc(NCCOCCN4CCN(CCOCCNCc5ccc(-n6cc(NC(=O)c7coc(-c8ccnc(NCC9CC9)c8)n7)c(C(F)F)n6)cc5)CC4)cc3C2=O)C(=O)N1 (stereo not drawn) [I-349] , report its measured OCI-LY10 % IRAK4 Degradation (1 uM).
A: A (>50% degradation)

Q: Given the entry CN(CCNCCCc1cccc2c1C(=O)N(C1CCC(=O)NC1=O)C2=O)C(=O)c1ccc(-n2cc(NC(=O)c3coc(-c4ccncc4)n3)c(C(F)F)n2)cc1 (stereo not drawn) [I-364] , report its measured OCI-LY10 % IRAK4 Degradation (1 uM).
A: C (<20% degradation)

Q: Given the entry O=C1CCC(N2C(=O)c3cccc(NC4CCN(CCOCCOCCNC(=O)c5ccc(-n6cc(NC(=O)c7coc(-c8ccnc(NCC(F)(F)F)c8)n7)c(C(F)F)n6)cc5)CC4)c3C2=O)C(=O)N1 (stereo not drawn) [I-283] , report its measured OCI-LY10 % IRAK4 Degradation (1 uM).
A: A (>50% degradation)

Q: Given the entry O=C1CCC(N2C(=O)c3ccc(OCCc4cnnn4CCOCCOCCNCc4ccc(-n5cc(NC(=O)c6coc(-c7ccnc(NCC8CC8)c7)n6)c(C(F)F)n5)cc4)cc3C2=O)C(=O)N1 (stereo not drawn) [I-347] , report its measured OCI-LY10 % IRAK4 Degradation (1 uM).
A: A (>50% degradation)

Q: Given the entry O=C1CCC(N2C(=O)c3cccc(NCCOCCNC(=O)c4ccc(-n5cc(NC(=O)c6coc(-c7ccnc(NCC8CC8)c7)n6)c(C(F)F)n5)cc4)c3C2=O)C(=O)N1 (stereo not drawn) [I-211] , report its measured OCI-LY10 % IRAK4 Degradation (1 uM).
A: B (>20-50% degradation)

Q: Given the entry CN(CCCCCNCCCc1cccc2c1C(=O)N(C1CCC(=O)NC1=O)C2=O)C(=O)c1ccc(-n2cc(NC(=O)c3coc(-c4ccnc(NCC5CC5)c4)n3)c(C(N)=O)n2)cc1 (stereo not drawn) [I-315] , report its measured OCI-LY10 % IRAK4 Degradation (1 uM).
A: B (>20-50% degradation)

Q: Given the entry CN(CCCCCCc1cccc2c1C(=O)N(C1CCC(=O)NC1=O)C2=O)Cc1ccc(-n2cc(NC(=O)c3coc(-c4ccnc(NCC5CC5)c4)n3)c(C(N)=O)n2)cc1 (stereo not drawn) [I-314] , report its measured OCI-LY10 % IRAK4 Degradation (1 uM).
A: B (>20-50% degradation)

Q: Given the entry O=C1CCC(N2C(=O)c3ccc(NC4CCN(CCOCCOCCNCc5ccc(-n6cc(NC(=O)c7coc(-c8ccnc(NCC9CC9)c8)n7)c(C(F)F)n6)cc5)CC4)cc3C2=O)C(=O)N1 (stereo not drawn) [I-335] , report its measured OCI-LY10 % IRAK4 Degradation (1 uM).
A: A (>50% degradation)

Q: Given the entry NC(=O)c1nn(-c2ccc(CNCC3CCCCN3CCOCCNc3cccc4c3C(=O)N(C3CCC(=O)NC3=O)C4=O)cc2)cc1NC(=O)c1coc(-c2ccnc(NCC(F)(F)F)c2)n1 (stereo not drawn) [I-306] , report its measured OCI-LY10 % IRAK4 Degradation (1 uM).
A: B (>20-50% degradation)
